experiment: in vivo; conditions: female, beagle, dog, in vivo, po, 0.15 mg/m2
Text: […]
measured property: AUC (ng·h/mL)
Use ng·h/mL as the unit, but write only the number.

### Prompt Looking for the measured AUC of CC(=O)Nc1cccc(-n2c(=O)n(C3CC3)c(=O)c3c(Nc4ccc(I)cc4F)n(C)c(=O)c(C)c32)c1 , can you help?
### Response 51.8

###

assay: FTIH study: single dose (Day 1) pharmacokinetics of Compound tablets; type: in vivo; conditions: plasma; human, single oral dose Day 1, fasting, 2.5 mg, mean (CV %), N 9; read-out: C24
measured property: concentration at 24 h (ng/mL)
Give the quantity in ng/mL, number only.

### Prompt Recorded concentration at 24 h of CC(=O)Nc1cccc(-n2c(=O)n(C3CC3)c(=O)c3c(Nc4ccc(I)cc4F)n(C)c(=O)c(C)c32)c1 , please.
### Response 1.81

###

experiment: in vivo; details: female, Sprague Dawley, rat, in vivo, po, 0.5 mg/m2
measured property: AUC (ng·h/mL)
I only need the number, in ng·h/mL, no unit after it.

### Prompt Any idea what its AUC is? The molecule is CC(=O)Nc1cccc(-n2c(=O)n(C3CC3)c(=O)c3c(Nc4ccc(I)cc4F)n(C)c(=O)c(C)c32)c1
### Response 211

###

assay: FTIH study: single dose (Day 1) pharmacokinetics of Compound tablets; type: in vivo; details: plasma; human, single oral dose Day 1, fasting, 2.5 mg, mean (CV %), N 9; read-out: AUC (0-24)
measured property: AUC(0-t)

### Prompt Which value of AUC(0-t) has been reported for CC(=O)Nc1cccc(-n2c(=O)n(C3CC3)c(=O)c3c(Nc4ccc(I)cc4F)n(C)c(=O)c(C)c32)c1 [Compound] in the records?
### Response 71.1 ng·h/mL

###

assay: clinical; details: human, plasma, po, 2.5 mg
measured property: AUC(0-t) (ng·h/mL)
Hi! Could you send only the number? It should be in ng·h/mL, unit omitted.

### Prompt Which measured AUC(0-t) value corresponds to CC(=O)Nc1cccc(-n2c(=O)n(C3CC3)c(=O)c3c(Nc4ccc(I)cc4F)n(C)c(=O)c(C)c32)c1 ?
### Response 448

###

assay: in vivo; conditions: female, Sprague-Dawley, rat, in vivo, po, 0.25 mg/m2
measured property: AUC (ng·h/mL)
The figure you give is taken to be in ng·h/mL; do not add the unit.

### Prompt Which value of AUC has been reported for CC(=O)Nc1cccc(-n2c(=O)n(C3CC3)c(=O)c3c(Nc4ccc(I)cc4F)n(C)c(=O)c(C)c32)c1 in the records?
### Response 158

###

test: in vivo; conditions: male, Sprague Dawley, rat, in vivo, po, 0.5 mg/m2
measured property: Cmax at 3 weeks (ng/mL)
Numbers only here, please. The scale is ng/mL.

### Prompt Endpoint output: Cmax at 3 weeks of CC(=O)Nc1cccc(-n2c(=O)n(C3CC3)c(=O)c3c(Nc4ccc(I)cc4F)n(C)c(=O)c(C)c32)c1 . Value?
### Response 7.78

###

test: FTIH study: single dose (Day 1) pharmacokinetics of Compound tablets; assay type: in vivo; settings: plasma; human, single oral dose Day 1, fasting, 3.0 mg, median, N 12; read-out: Tmax
measured property: Tmax (h)
Note: unit h is implicit; provide only the numeric part.

### Prompt Report Tmax for CC(=O)Nc1cccc(-n2c(=O)n(C3CC3)c(=O)c3c(Nc4ccc(I)cc4F)n(C)c(=O)c(C)c32)c1 please.
### Response 1.25

###

assay: in vivo; conditions: male, Sprague Dawley, rat, in vivo, po, 0.125 mg/m2
measured property: AUC (ng·h/mL)
Quick reminder: number only, in ng·h/mL, skip the unit.

### Prompt What value of AUC has been recorded for this entry: CC(=O)Nc1cccc(-n2c(=O)n(C3CC3)c(=O)c3c(Nc4ccc(I)cc4F)n(C)c(=O)c(C)c32)c1
### Response 35

###

assay: in vivo; conditions: female, Sprague-Dawley, rat, in vivo, po, 0.125 mg/m2
measured property: Cmax (ng/mL)
The response must be a number in ng/mL with no trailing unit.

### Prompt Requested read-out: Cmax. Entry: CC(=O)Nc1cccc(-n2c(=O)n(C3CC3)c(=O)c3c(Nc4ccc(I)cc4F)n(C)c(=O)c(C)c32)c1
### Response 5.3

###

assay: FTIH study: single dose (Day 1) pharmacokinetics of Compound tablets; assay type: in vivo; details: plasma, oral; human, Day 1, fasting, 6.0 mg loading dose, median, N 10; read-out: Tmax
measured property: Tmax (h)
Answer with a number only, understood to be in h.

### Prompt Can you share its Tmax? I mean this molecule: CC(=O)Nc1cccc(-n2c(=O)n(C3CC3)c(=O)c3c(Nc4ccc(I)cc4F)n(C)c(=O)c(C)c32)c1
### Response 1.5

###

assay: in vivo; settings: male, Sprague-Dawley, rat, in vivo, po, 0.25 mg/m2
Text: […]
measured property: Cmax (ng/mL)
All answers are understood in ng/mL, so give the number only.

### Prompt Field request: Cmax | item: CC(=O)Nc1cccc(-n2c(=O)n(C3CC3)c(=O)c3c(Nc4ccc(I)cc4F)n(C)c(=O)c(C)c32)c1 [Compound]
### Response 5.34

###

assay: clinical; details: human, plasma, po, 3 mg
measured property: AUC(0-t) (ng·h/mL)
Field: numeric (ng·h/mL). Do not append units.

### Prompt Please give the measured AUC(0-t) for this compound: CC(=O)Nc1cccc(-n2c(=O)n(C3CC3)c(=O)c3c(Nc4ccc(I)cc4F)n(C)c(=O)c(C)c32)c1
### Response 575

###

assay: in vivo; settings: male, beagle, dog, in vivo, po, 0.45 mg/m2/day
measured property: Cmax (ng/mL)
Answer with a number only, understood to be in ng/mL.

### Prompt # input compound: CC(=O)Nc1cccc(-n2c(=O)n(C3CC3)c(=O)c3c(Nc4ccc(I)cc4F)n(C)c(=O)c(C)c32)c1 ; wanted: its Cmax
### Response 8.42

###

assay: in vivo; conditions: female, Sprague Dawley, rat, in vivo, po, 0.5 mg/m2
measured property: Cmax at 3 weeks (ng/mL)
Response body: numeric value in ng/mL, unit text excluded.

### Prompt Entry under review: CC(=O)Nc1cccc(-n2c(=O)n(C3CC3)c(=O)c3c(Nc4ccc(I)cc4F)n(C)c(=O)c(C)c32)c1 . Reported Cmax at 3 weeks?
### Response 13

###

experiment: in vivo; details: female, beagle, dog, in vivo, po, 0.15 mg/m2
measured property: Cmax (ng/mL)
API: value field is a number in ng/mL; no unit string.

### Prompt Please report the recorded Cmax for CC(=O)Nc1cccc(-n2c(=O)n(C3CC3)c(=O)c3c(Nc4ccc(I)cc4F)n(C)c(=O)c(C)c32)c1 .
### Response 2.71

###

assay: clinical; details: human, plasma, po, 2.5 mg
measured property: Tmax (h)
# unit: h | format: bare number

### Prompt Could you share which Tmax value was measured for CC(=O)Nc1cccc(-n2c(=O)n(C3CC3)c(=O)c3c(Nc4ccc(I)cc4F)n(C)c(=O)c(C)c32)c1 ?
### Response 2

###

assay: in vivo; conditions: female, beagle, dog, in vivo, po, 0.5 mg/m2
measured property: AUC (ng·h/mL)
API: value field is a number in ng·h/mL; no unit string.

### Prompt Report AUC for CC(=O)Nc1cccc(-n2c(=O)n(C3CC3)c(=O)c3c(Nc4ccc(I)cc4F)n(C)c(=O)c(C)c32)c1 [Compound] please.
### Response 205

###

assay: in vivo; conditions: female, Sprague Dawley, rat, in vivo, po, 0.125 mg/m2
measured property: AUC (ng·h/mL)
Quick reminder: number only, in ng·h/mL, skip the unit.

### Prompt For CC(=O)Nc1cccc(-n2c(=O)n(C3CC3)c(=O)c3c(Nc4ccc(I)cc4F)n(C)c(=O)c(C)c32)c1 , what is its reported AUC?
### Response 60.2

###

experiment: clinical; settings: human, plasma, po, 2 mg
measured property: half-life (h)
Numeric only. Scale: h

### Prompt Please report the recorded half-life for CC(=O)Nc1cccc(-n2c(=O)n(C3CC3)c(=O)c3c(Nc4ccc(I)cc4F)n(C)c(=O)c(C)c32)c1 .
### Response 101

###

experiment: FTIH study: single dose (Day 1) pharmacokinetics of Compound tablets; assay type: in vivo; conditions: plasma, oral; human, Day 1, fasting, 8.0 mg loading dose, mean (CV %), N 7
measured property: Cmax (ng/mL)
Report only the number, with the unit ng/mL understood.

### Prompt I would be grateful if you could share the reported Cmax for CC(=O)Nc1cccc(-n2c(=O)n(C3CC3)c(=O)c3c(Nc4ccc(I)cc4F)n(C)c(=O)c(C)c32)c1 .
### Response 14.9

###

assay: in vivo; conditions: male, beagle, dog, in vivo, po, 0.3 mg/m2
measured property: AUC (ng·h/mL)
Write the answer as a number in ng·h/mL, unit excluded.

### Prompt Entry under review: CC(=O)Nc1cccc(-n2c(=O)n(C3CC3)c(=O)c3c(Nc4ccc(I)cc4F)n(C)c(=O)c(C)c32)c1 [Compound] . Reported AUC?
### Response 95.5
